Measured self-cleavage values are reported for all entries that follow.
B1: OR4K15 (parent)
chain: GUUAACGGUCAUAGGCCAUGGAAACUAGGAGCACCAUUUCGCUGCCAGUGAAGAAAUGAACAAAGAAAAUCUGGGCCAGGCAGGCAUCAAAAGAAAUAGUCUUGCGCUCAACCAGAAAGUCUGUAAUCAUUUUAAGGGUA

Variants of: B1
Assay: self-cleavage, relative activity (ratio to wild type); higher = more cleavage; in vitro, sequencing; the parent is a self-cleaving ribozyme

| VARIANT KEY | self-cleavage |
| --- | --- |
| A56U A59G | 1.62 |
| A23G C46U | 1.59 |
| A13G A90U | 0.25 |
| A94G A135G | 0.43 |
| G29C U127C | 0.39 |
| U37C U39A | 1.55 |
| A33G A90G | 0.46 |
| A24G G84C | 0.53 |
| A30G A111G | 0.05 |
| A86U U100C | 2.52 |
| A52U A62G | 1.23 |
| G14U A92G | 1.2 |
| U38A A78G | 0.26 |
| U87C U130G | 0.15 |
| A5C | 1.21 |
| A67G U122G | 2.16 |
| G14A U19C | 1.44 |
| A5G A47C | 1.22 |
| U108G A118G | 0.01 |
| A51G A60G | 1.2 |
| A51G A62G | 0.33 |
| U120G | 1.31 |
| A60C A135U | 1.44 |
| A116G U120C | 0.27 |
| A11U A51C | 1.16 |
| A5G A52C | 1.39 |
| A36U A68G | 1.62 |
| U9G A24G | 1.4 |
| A56G A86C | 1.48 |
| A67U A69G | 1.13 |
| A60U U122A | 2.08 |
| C10U U103C | 1.16 |
| A64G U100C | 1.22 |
| A18G C109A | 0.34 |
| A86G U102C | 2.36 |
| A82U A86U | 0.32 |
| A36G A140G | 1.31 |
| A90G A116U | 0.5 |

FYI, the data here is from the RNAGym collection of RNA variant scans (doi:10.7554/elife.90254).
